system: HT-1080.hFAP tumor-bearing mice; assay: Biodistribution studies in xenografted mice; assay type: in vivo; settings: 4 hours p.i., i.v.
Consider the following compounds; for each one, report its Biodistribution: Liver.
# unit: % I.A./g | format: bare number

Query block: Indicate the recorded Biodistribution: Liver value for this compound: CN(C(=O)CCC(=O)N1CCN(C(=O)CCC(C(=O)O)N2CCN(CC(=O)[O-])CCN(CC(=O)[O-])CC2)CC1)c1ccc2nccc(C(=O)NCC(=O)N3CC(F)(F)CC3C#N)c2c1.[61Cu+2] (stereo not drawn) [[^61Cu]Cu-NODAGA-4]
Result block: 0.4

Query block: Indicate the recorded Biodistribution: Liver value for this compound: CN(C(=O)CCC(=O)NCCNC(=O)CCC(C(=O)O)N1CCN(CC(=O)[O-])CCN(CC(=O)[O-])CC1)c1ccc2nccc(C(=O)NCC(=O)N3CC(F)(F)CC3C#N)c2c1.[61Cu+2] (stereo not drawn) [[^61Cu]Cu-NODAGA-2]
Result block: 0.6

Query block: Indicate the recorded Biodistribution: Liver value for this compound: N#CC1CC(F)(F)CN1C(=O)CNC(=O)c1ccnc2ccc(NC(=O)CCC(=O)NCCNC(=O)CCC(C(=O)O)N3CCN(CC(=O)[O-])CCN(CC(=O)[O-])CC3)cc12.[61Cu+2] (stereo not drawn) [[^61Cu]Cu-NODAGA-1]
Result block: 1.0
